Cited source for all entries: ChEMBL document CHEMBL2062446

- assay text: 1-Octanol-sodium phosphate buffer partition coefficient, log D of the compound at pH 7.4 after 24 hrs by shake flask method
- Type: physicochemical
outcome measure: logD at 24 h
Give bare numbers.

Please look up its logD at 24 h: `CC(F)(F)CN1CCOc2c(nn(-c3ccccc3Cl)c2-c2ccc(Cl)cc2)C1=O` 4.1

###

- System: MDR1
- assay text: Apparent permeability from apical to basal side of MDCK cells expressing MDR1
- Format: ADME, cell-based, Canis lupus familiaris
- condition notes: dog
outcome measure: Papp A→B
Answer format: number, then unit.

The examples below pair each entry with its known result.
{"columns": ["compound", "result"],
 "data": [
  ["CC(F)(F)CN1CCOc2c(nn(-c3ccccc3Cl)c2-c2ccc(Cl)cc2)C1=O", "7.1 ×10⁻⁶ cm/s"],
  ["COCC(=O)NC1CCCOc2c1nn(-c1ccccc1Cl)c2-c1ccc(Cl)cc1 (racemic)", "9.1 ×10⁻⁶ cm/s"],
  ["CS(=O)(=O)CC(=O)NC1CCCOc2c1nn(-c1ccccc1Cl)c2-c1ccc(Cl)cc1 (racemic)", "2.7 ×10⁻⁶ cm/s"],
  ["O=C(NC1CCCOc2c1nn(-c1ccccc1Cl)c2-c1ccc(Cl)cc1)c1ccon1 (racemic)", "6.6 ×10⁻⁶ cm/s"]
]}

# input for lookup
// returns reported Papp A→B for input `CC(C)C(=O)N[C@@H]1CCCOc2c1nn(-c1ccccc1Cl)c2-c1ccc(Cl)cc1` 8.4 ×10⁻⁶ cm/s
